The entries below come with measured Number of strains at MIC value 0.5 mg/L values attached.
tested on: KPC-expressing Enterobacteriaceae (n = 77); assay: organism not typed; type: cell-based; settings: KPC-expressing (n = 77)

compound	target	Number of strains at MIC value 0.5 mg/L
CN(C)c1cc(NC(=O)CNC(C)(C)C)c(O)c2c1C[C@H]1C[C@H]3[C@H](N(C)C)C(O)=C(C(N)=O)C(=O)[C@@]3(O)C(O)=C1C2=O [Tigecycline]	KPC-expressing Enterobacteriaceae (n = 77)	19
C[C@@H](O)[C@H]1C(=O)N2C(C(=O)O)=C(S[C@@H]3CN[C@H](C(=O)N(C)C)C3)[C@H](C)[C@H]12 [Meropenem]	KPC-expressing Enterobacteriaceae (n = 77)	1
Nc1nc(/C(=C/CC(=O)O)C(=O)N[C@@H]2C(=O)N3C(C(=O)O)=CCS[C@H]23)cs1 [Ceftibuten, ceftibuten, reference compound]	KPC-expressing Enterobacteriaceae (n = 77)	2
NC[C@H]1O[C@H](O[C@H]2[C@H](O)[C@@H](O[C@H]3O[C@H](CO)[C@@H](O)[C@H](N)[C@H]3O)[C@H](N)C[C@@H]2N)[C@H](N)C[C@@H]1O [Tobramycin]	KPC-expressing Enterobacteriaceae (n = 77)	3

---

test: Excipient screening: solubility in SEDDS excipients; type: physicochemical; conditions: Triacetin (glycerin triacetate), 50 °C, organic solvent or mixture, thermodynamic from solid
assay-metric: solubility

> print(dat)
                                   compound    data.value
1  CCOB1Oc2c(cccc2C(=O)OCOC(=O)C(CC)CC)C[C@@H]1NC(=O)CC [Compound 1-ethanolate]  > 84.2 mg/mL

---

experiment: Excipient screening: solubility in SEDDS excipients; assay type: physicochemical; details: Span 20 (Sorbitan monolaurate), neat excipient, 50 °C, organic solvent or mixture, thermodynamic from solid
assay-metric: solubility

> print(dat)
                                   molecule   data.value
1  CCOB1Oc2c(cccc2C(=O)OCOC(=O)C(CC)CC)C[C@@H]1NC(=O)CC [Compound 1-ethanolate]  > 227 mg/mL

---

molecular target: IMP-1 (Serratia marcescens, UniProt P52699); test: Beta-lactamase enzyme inhibition (IC50)
Sequence (P52699 19-246 limits assumed): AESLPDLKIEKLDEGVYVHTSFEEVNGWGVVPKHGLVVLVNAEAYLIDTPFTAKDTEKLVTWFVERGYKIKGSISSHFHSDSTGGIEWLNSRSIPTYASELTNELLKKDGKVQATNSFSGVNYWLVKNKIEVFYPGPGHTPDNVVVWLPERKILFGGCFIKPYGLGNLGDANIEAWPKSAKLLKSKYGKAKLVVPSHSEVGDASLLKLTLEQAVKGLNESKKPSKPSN
assay-metric: IC50

> print(dat)
                                   smi  data.value
1  CCC(=O)N[C@H]1Cc2cccc(C(=O)O)c2OB1O    > 100 µM

---

experiment: Excipient screening: solubility in SEDDS excipients; type: physicochemical; conditions: Capmul MCM (Caprylic/capric mono- & diglycerides), 50 °C, oil or lipid, thermodynamic from solid
assay-metric: solubility

> print(dat)
                                   compound   data.value
1  CCOB1Oc2c(cccc2C(=O)OCOC(=O)C(CC)CC)C[C@@H]1NC(=O)CC [Compound 1-ethanolate]  > 351 mg/mL

---

Assay: Excipient screening: solubility in SEDDS excipients
Format: physicochemical
Conditions: 50 °C, organic solvent or mixture, thermodynamic from solid, Labrasol (Caprylocaproyl polyoxyl-8 glycerides)
Procedure: The solubility of Compound 1-ethanolate was evaluated in a series of pharmaceutically acceptable excipients that are commonly used to prepare self-emulsifying drug delivery systems (SEDDS) for oral drug delivery. […] The indicated quantity of Compound 1-ethanolate was weighed into a 3 mL screw top glass vial outfitted with a magnetic stir bar. […]
assay-metric: solubility

> print(dat)
                                   compound   data.value
1  CCOB1Oc2c(cccc2C(=O)OCOC(=O)C(CC)CC)C[C@@H]1NC(=O)CC [Compound 1-ethanolate]  > 585 mg/mL

---

experiment: Metabolic stability in liver S9; format: in vitro ADME, beagle dog; settings: beagle, liver S9; Dog; test conc. 3 μM
assay-metric: half-life at 3 μM (min)

> print(dat)
                                   molecule  inequality.sign  data.value
1  COCC1=C(C(=O)OC(C)OC(=O)OC(C)C)N2C(=O)[C@@H](NC(=O)/C(=N\OC)c3csc(N)n3)[C@H]2SC1 (some centres unmarked)                =         4.7
2       CCC(=O)N[C@H]1Cc2cccc(C(=O)O)c2OB1O                >         120

---

assay: Excipient screening: solubility in SEDDS excipients; assay type: physicochemical; conditions: PEG-400, 50 °C, organic solvent or mixture, thermodynamic from solid, PEG-400; 50° C.
assay-metric: solubility

> print(dat)
                                   compound  assay.metric   data.value
1  CCOB1Oc2c(cccc2C(=O)OCOC(=O)C(CC)CC)C[C@@H]1NC(=O)CC [Compound 1-ethanolate]    solubility  > 498 mg/mL

---

assay: Metabolic stability in intestinal S9; type: in vitro ADME, CD-1 mouse; conditions: CD-1, intestinal S9; Mouse; test conc. 3 μM
assay-metric: half-life at 3 μM (min)

> print(dat)
                                   compound       assay.metric  measure.unit  inequality.sign  data.value
1       CCC(=O)N[C@H]1Cc2cccc(C(=O)O)c2OB1O  half-life at 3 μM           min                >         120
2  COCC1=C(C(=O)OC(C)OC(=O)OC(C)C)N2C(=O)[C@@H](NC(=O)/C(=N\OC)c3csc(N)n3)[C@H]2SC1 (some centres unmarked)  half-life at 3 μM           min                =         2.5

---

test: Excipient screening: solubility in SEDDS excipients; type: physicochemical; settings: Maisine CC (glyceryl monolinoleate), 50 °C, oil or lipid, thermodynamic from solid
assay-metric: solubility

> print(dat)
                                   compound   data.value
1  CCOB1Oc2c(cccc2C(=O)OCOC(=O)C(CC)CC)C[C@@H]1NC(=O)CC [Compound 1-ethanolate]  > 368 mg/mL

---

experiment: Single ascending dose pharmacokinetics, Solutol HS-15:Water (10:90); type: in vivo, Beagle dogs; details: beagle, dog, plasma, iv, 10 mg/kg
assay-metric: AUC(0-inf) (ng·h/mL)

> print(dat)
                                   molecule  measure.unit  data.value
1  CCC(=O)N[C@H]1Cc2cccc(C(=O)O)c2OB1O [Compound 2]       ng·h/mL       39300

Where do these numbers come from? They come from patent US12544395B2.
